As shown below, each of these molecules has a reported MIC value.
Tested on: Candida albicans
Test: Antifungal activity against Candida albicans ATCC 64124 assessed as fungal growth inhibition by double dilution method
Assay type: functional

smiles-str	MIC [µg/mL]
COc1ccc(NNC(=O)c2nc(F)ccc2F)cc1	1.95
O=C(NNc1cccc(F)c1)c1nc(F)ccc1F	0.98
COc1ccc(NNC(=O)c2ccc(F)cn2)cc1	0.98
COc1ccc(NNC(=O)c2ncc(F)cc2F)cc1	1.95
COc1ccc(NNC(=O)c2ccc(F)cc2F)cc1	1.95
COc1cccc(NNC(=O)c2cccc(F)n2)c1	0.98
C[C@@H]1[C@H](O)[C@@H](C)/C=C/C=C/C=C/C=C/C=C/C=C/C=C/[C@H](O[C@@H]2O[C@H](C)[C@@H](O)[C@H](N)[C@@H]2O)C[C@@H]2O[C@](O)(C[C@@H](O)C[C@@H](O)[C@H](O)CC[C@@H](O)C[C@@H](O)CC(=O)O[C@H]1C)C[C@H](O)[C@H]2C(=O)O	1.95
O=C(NNc1cccc(F)c1)c1ccc(F)cn1	0.49
O=C(NNc1cc(F)ccc1F)c1ccccn1	1.95
O=C(NNc1cc(F)cc(F)c1)c1ccccn1	0.98
O=C(NNc1cccc(F)c1)c1ncc(F)cc1F	0.98
O=C(NNc1cccc(F)c1)c1ccc(Br)cn1	0.49
O=C(NNc1cc(Cl)cc(Cl)c1)c1ccccn1	1.95
